Here, each record is paired with measured 2ED50 duration data.
Tested on: SD rats
Test: animal or person
Type: in vivo
Details: SD rats, single tail vein injection at 2×ED50; time from disappearance to recovery of righting reflex
Hi! Could you send only the number? It should be in min, unit omitted.

Reference set (3 entries):
Assign 2ED50 duration to the following record: CCOC(=O)C1(OC(=O)CC[C@@H]2N=C(c3ccccn3)c3cc(Br)c(Br)cc3-n3c(C)cnc32)CC1 [Example 19]
4.07

Assign 2ED50 duration to the following record: CCOC(=O)COC(=O)CC[C@@H]1N=C(c2ccccn2)c2cc(Cl)ccc2-n2c(C)cnc21 [Example 38]
4.05

Assign 2ED50 duration to the following record: COC(=O)C1(OC(=O)CC[C@@H]2N=C(c3ccccn3)c3cc(Cl)c(C(F)(F)F)cc3-n3c(C)cnc32)CC1 [Example 40]
4.06

Switching to the query record.
Assign 2ED50 duration to the following record: Cc1cnc2n1-c1ccc(Br)cc1C(c1ccccn1)=N[C@H]2CCC(=O)OCOC(=O)OC(C(C)C)C(C)C [Example 52]
4.03
